Provenance of the data: the supplement of paper PMC6555819

tested on: LXRb homodimer (NR concentration 270 nM); experiment: PBM binding z-score (relative to random genomic background probes); higher = stronger binding; sequences stand for … in GC…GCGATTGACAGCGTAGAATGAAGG
Param threshold (0.7) applies to PBM binding z-score; output True when value >= threshold, False when value < threshold.

>>> discrete_label("CGAACTAGGTCACCAGGACAGGGAAGAGGTTGGA")
"False"
>>> discrete_label("CCTTACGGGTCAAGGTTGTAGCACGGGTGGTACG")
"False"
>>> discrete_label("TTACCAAAGTGAAAGGTCGTTGATGCACGCCTTG")
"False"
>>> discrete_label("CGTCAAAGTTCAAGCTAACGTAACAGAAAGCAGC")
"True"
>>> discrete_label("CGTCCAAGGTCATAGGAGGTCATTGAAGACAGAT")
"True"
>>> discrete_label("CCTGCTAGGACAATGGTCAGCTAAAGCAGCTCGC")
"False"
>>> discrete_label("CGAACTAGGTCACCAAGACAGTGAAGAGGTTGGA")
"False"
>>> discrete_label("CGAACAAGGTCAAAGGACAGTGAAAGGCGACGTA")
"True"
>>> discrete_label("ATATGTAGGTTAGGGTCATTCAAAAAGTAGGGAA")
"True"
>>> discrete_label("CGAACTAAGTCAAAGGACAGTGAAAGGCGACGTA")
"False"
>>> discrete_label("TTTCCAAGGTGAAAGGTCGTTGATGCACGCCTTG")
"False"
>>> discrete_label("CCTTACGGGTCACTTACAGGTTATAGCATTTGGA")
"False"
>>> discrete_label("GATACAGGGTGAAGGCCAGAGTACGCGTATTGAT")
"False"
>>> discrete_label("CGAACTACGTCAAAGGACAGTGAAAGGCGACGTA")
"False"
>>> discrete_label("TCTAGTTGGTCATGGAGGTCACACACGACGGGTA")
"True"
>>> discrete_label("ATCCAAAGGTCGAGGTGAGTATAGAGAAAGGGAA")
"True"
>>> discrete_label("CCTAGTGGGTCAGGAGGTCACACACCGGATATGA")
"False"
>>> discrete_label("CGTCCAAGGTCACAGGAGGTCAGTGAAGACAGAT")
"True"
>>> discrete_label("ACCAGCAGGCCAAGGGTCACTCAAGATTAGTCCG")
"False"
>>> discrete_label("CAAACTAGGTCACAGAGGTTAAAGTCCGTGCGTA")
"False"
>>> discrete_label("CGAACTAGATCACCAGGACAGTGAAGAGGTTGGA")
"False"
>>> discrete_label("TAGCCTAGGTCATGGGCCTGTATACCACGCGAAC")
"False"
>>> discrete_label("CGCCCAAGGTCAGCAGGTCAGTGAAAGCGACGTG")
"False"
>>> discrete_label("AGAATGAGGTTACCAAAGATCAGTGAAACGCTTG")
"False"
>>> discrete_label("TGTCAGAGTTCAAAGGTAACGTAAGTATCCACAC")
"True"

* * *

test system: RARb homodimer (NR concentration 270 nM); assay: PBM binding z-score (relative to random genomic background probes); higher = stronger binding; sequences stand for … in GC…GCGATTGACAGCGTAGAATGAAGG
Param threshold (2) applies to PBM binding z-score; output condition met when value >= threshold, condition not met when value < threshold.

>>> discrete_label("CCTTGCGGGTCACTGACAGGTTATAGCATTTGGA")
"condition met"
>>> discrete_label("CTTAGTTGGTCAAGGTCACACACGCTATAGGTAC")
"condition met"
>>> discrete_label("CGAACTAGGTCCCCAGGACAGTGAAGAGGTTGGA")
"condition not met"
>>> discrete_label("ATATGTAGGTTCCATCCGGGTCATTCAGGCTATG")
"condition met"
>>> discrete_label("CAACCTAGGTCACGAAAGGTCAAAGTCGAATGAC")
"condition met"
>>> discrete_label("CTATGTAGGTTAAGGGGGTCCTTCAGTTTGAAAG")
"condition not met"

* * *

system: PPARg:RXRa 30nM:10nM, anti-RXR (NR concentration 30 nM, RXRa partner concentration 10 nM); assay: PBM binding z-score (relative to random genomic background probes); higher = stronger binding; sequences stand for … in GC…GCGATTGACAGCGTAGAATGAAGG
Property: PBM binding z-score

>>> observed_result("CGAACCAGGTCAAAGGACAGTGAAAGGCGACGTA")
4.9
>>> observed_result("CTATGTAGGTTAAGGGGGTCATTCATTTTGAAAG")
6.27
>>> observed_result("ACTAGTTGTTCAGCTGAGGTCACACACAATTCGG")
0.705
>>> observed_result("TCGAGTAGGTTACGGGGGCATTAAGGGATGAAGA")
3.23
>>> observed_result("ATATGTAGGTTAGGGTCATTAAGAAAGTAGGGAA")
4.1
>>> observed_result("CGAACTAGGTCAAAGCACAGTGAAAGGCGACGTA")
5.18
>>> observed_result("TCGACTAGGTTACGGGGGCATTCAGGGATGAAGA")
4.68
>>> observed_result("CCTCGGAGGACACCAGGAGGTCAGAGCTGCCAGA")
-0.691
>>> observed_result("CCGAGTAGGTTACGAGGGGGCAGTCAGTGCGAAT")
0.853
>>> observed_result("CGAACTAGGTCACCAGGACAATGAAGAGGTTGGA")
4.53
>>> observed_result("CGAACTAGGTCACAGGACAGTGAAAGGCGACGTA")
4.65
>>> observed_result("TCTCGGAGGACACGAAAAGTCAGAGCTCGACATC")
2.15
>>> observed_result("CAAACTAGGTCACCGGAAGGTCAAAGTTCGCATG")
6.06
>>> observed_result("ACTAATTGGTCAGCTGAGGTCACACACAATTCGG")
1.23
>>> observed_result("GCTTACGGGTGAAAGGTTATAGCATGAATAGAAT")
7.78
>>> observed_result("TCGAGTAGGTTACGGGGGCACTCAGGGATGAAGA")
3.54
>>> observed_result("TAGCCTAAGTCATGGGCCAGTATACCACGCGAAC")
-0.251
>>> observed_result("ATATGTAGGTTAGGGTCACTCAGAAAGTAGGGAA")
3.96
>>> observed_result("CTATGTAGATTAAGGGGGTCATTCAGTTTGAAAG")
2.72
>>> observed_result("CGATCTAGGTCAAAGGACAGTGAAAGGCGACGTA")
8.39
>>> observed_result("CTATGTAGGTTAAGGTGGTCATTCAGTTTGAAAG")
2.07
>>> observed_result("CTATGTAGGTTAAGGGGGTCATACAGTTTGAAAG")
6.16
>>> observed_result("ATACGTAGGTTATCGGGTCATTCAGTTTGCGCAT")
0.883
>>> observed_result("CGAACTAGGTCAGAACAGGACAGTTAAGGATGAT")
2.04
>>> observed_result("ATCGAAACGTCGTGAGGTGAGTATACAGAAAGGC")
-0.051
>>> observed_result("ATATGTAGGTTAGCTGGGGTCATTCCGACTAGGC")
2.35

* * *

Listed here: items and their measured PBM binding z-score.
system: THRa:RXRa (NR concentration 90 nM, RXRa partner concentration 90 nM); assay: PBM binding z-score (relative to random genomic background probes); higher = stronger binding; sequences stand for … in GC…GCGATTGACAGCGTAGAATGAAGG
Property: PBM binding z-score

>>> observed_result("ATATGAAGGTTAGGGTCATTCAGAAAGTAGGGAA")
4
>>> observed_result("GATACAGGGTCAAGGCCAGAATACGCGTATTGAT")
3.62
>>> observed_result("AAATGTAGGTTAAGGGTCATTCAGGTTGGTTCGC")
3.57
>>> observed_result("CGTCCAAGGTCAAGCTCAGTGAAAGAGACTCGAA")
3.76
>>> observed_result("CCTAGTAGGTTACGAGGGGGCATTCAGTGCGAAT")
3.91
>>> observed_result("ATCGAATGGTCGTGAGGTGAGTATACAGAAAGGC")
1.5

* * *

system: RXRa homodimer (NR concentration 180 nM); test: PBM binding z-score (relative to random genomic background probes); higher = stronger binding; sequences stand for … in GC…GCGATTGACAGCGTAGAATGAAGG
Param threshold (3) applies to PBM binding z-score; output Met when value >= threshold, Not met when value < threshold.

>>> discrete_label("GGAACGAGCGCAAAGTTGATAGCATCTGTCGACG")
"Not met"
>>> discrete_label("CTATGTAGGATAAGGGGGTCATTCAGTTTGAAAG")
"Met"
>>> discrete_label("CCTAGCAGGCCAGGTTCACTCAAGCATTTCGCTT")
"Not met"
>>> discrete_label("AGCGAAAGGTCGAAGGTGAGTATACCCACCCGAA")
"Met"
>>> discrete_label("CGAACTAGGTCAAAGGACACTGAAAGGCGACGTA")
"Met"
>>> discrete_label("CCGAGTAGGTTACGAGGGGGCATTAAGTGCGAAT")
"Not met"
>>> discrete_label("CTATGTAGGTTAAGGGGGTCATTCAATTTGAAAG")
"Met"
>>> discrete_label("CTCTGTAGGTTAAGGGGGTCATTCAGTTTGAAAG")
"Met"
>>> discrete_label("CTATGTAGGTTAACGGGGTCATTCAGTTTGAAAG")
"Met"
>>> discrete_label("CTATGTAGGTTAAGGGGGTCTTTCAGTTTGAAAG")
"Not met"
>>> discrete_label("ATATGTAGCTTAAGGGTCATTCAGGTTGGTTCGC")
"Met"
>>> discrete_label("CCTACTGGGCCATTCAGAGGTCATTGATCATATG")
"Met"
>>> discrete_label("CCGTGTAGGTTACGAGGGGGCATTCAGTGCGAAT")
"Not met"
>>> discrete_label("CCTACTGGGCCACGAAAGGGCATTGATTCAGTGA")
"Not met"
>>> discrete_label("GATCCAGGGTCAGCTAGAGGCCAGAGTATGGAAA")
"Met"
>>> discrete_label("ACATGTAGGTTAGGGTCATTCAGAAAGTAGGGAA")
"Met"
>>> discrete_label("CCGAGTAGGTTCCGAGGGGGCATTCAGTGCGAAT")
"Not met"
>>> discrete_label("CGTCCAAGGTCATAAGAGGTCAGTGAAGACAGAT")
"Met"
>>> discrete_label("TGACTGAGGTTAAAGATCAGGGAACGTGGCGTCG")
"Met"
>>> discrete_label("CGAACTAGGTCAAAGGACAGTGAAAGGCGACGTA")
"Met"
>>> discrete_label("TTATCAAGGTGAAAGGTCGTTGATGCACGCCTTG")
"Met"
>>> discrete_label("ATAGGTAGGTTAGGGTCATTCAGAAAGTAGGGAA")
"Met"
>>> discrete_label("CCGAGTAGGTTACGAGGGGGCATTTAGTGCGAAT")
"Not met"
>>> discrete_label("CCGAGTAGGTTTCGAGGGGGCATTCAGTGCGAAT")
"Not met"
>>> discrete_label("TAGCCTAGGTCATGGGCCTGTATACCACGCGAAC")
"Met"
>>> discrete_label("TCAAGTAGGTTACGGGGGCATTCAGGGATGAAGA")
"Met"
